# Activity listing for each entry below
Tested on: HCT-8
Test: Induction of apoptosis in human HCT8 cells assessed as necrotic cells at 50 ug/mL after 24 hrs by Annexin V-FITC and propidium iodide staining-based flow cytometric analysis (reference value: 7.73%)
Assay type: cell-based
Settings: hct-8, 24 h
property-name: Activity

[[record]]
compound = "CCOc1ccc(/C=C/C(N)(S)NNC(=O)c2ccncc2)cc1 (stereo not given)"
value = "28.3%"

[[record]]
compound = "COc1ccc(/C=C/C(N)=S)cc1"
value = "20.3%"

[[record]]
compound = "CCOc1ccc(/C=C/C(N)=S)cc1"
value = "14.8%"

[[record]]
compound = "NC(=S)/C=C/c1ccc(Cl)cc1"
value = "24.9%"

[[record]]
compound = "COc1ccc(/C=C/C(N)(S)NNC(=O)c2ccncc2)cc1 (stereo not given)"
value = "18.2%"

[[record]]
compound = "Cc1ccc(/C=C/C(N)(S)NNC(=O)c2ccncc2)cc1 (stereo not given)"
value = "28.5%"

[[record]]
compound = "NC(S)(/C=C/c1ccccc1)NNC(=O)c1ccncc1 (stereo not given)"
value = "18.9%"

[[record]]
compound = "NC(=S)/C=C/c1ccccc1"
value = "22.9%"

[[record]]
compound = "NNC(=O)c1ccncc1 [ISONIAZID]"
value = "17.9%"

[[record]]
compound = "Cc1ccc(/C=C/C(N)=S)cc1"
value = "18.4%"


----------
Test system: HCT-8
Assay: Induction of apoptosis in human HCT8 cells assessed as late apoptotic cells at 50 ug/mL after 24 hrs by Annexin V-FITC and propidium iodide staining-based flow cytometric analysis (reference value: 2.97%)
Format: cell-based
Settings: hct-8, 24 h
# Activity listing for each entry below
property-name: Activity (%)

[[record]]
compound = "CCOc1ccc(/C=C/C(N)=S)cc1"
experimental_system = "HCT-8"
value = 13.6

[[record]]
compound = "Cc1ccc(/C=C/C(N)=S)cc1"
experimental_system = "HCT-8"
value = 14.7

[[record]]
compound = "NC(S)(/C=C/c1ccccc1)NNC(=O)c1ccncc1 (stereo not given)"
experimental_system = "HCT-8"
value = 12.2

[[record]]
compound = "NC(=S)/C=C/c1ccc(Cl)cc1"
experimental_system = "HCT-8"
value = 33.7

[[record]]
compound = "COc1ccc(/C=C/C(N)(S)NNC(=O)c2ccncc2)cc1 (stereo not given)"
experimental_system = "HCT-8"
value = 9.83

[[record]]
compound = "COc1ccc(/C=C/C(N)=S)cc1"
experimental_system = "HCT-8"
value = 12.9

[[record]]
compound = "NNC(=O)c1ccncc1"
experimental_system = "HCT-8"
value = 8.56

[[record]]
compound = "NC(=S)/C=C/c1ccccc1"
experimental_system = "HCT-8"
value = 36

[[record]]
compound = "Cc1ccc(/C=C/C(N)(S)NNC(=O)c2ccncc2)cc1 (stereo not given)"
experimental_system = "HCT-8"
value = 16

[[record]]
compound = "CCOc1ccc(/C=C/C(N)(S)NNC(=O)c2ccncc2)cc1 (stereo not given)"
experimental_system = "HCT-8"
value = 21.6


----------
System: Proteus mirabilis
Assay: Antibacterial activity against Proteus mirabilis 1751 assessed as growth inhibition at 1 mg/mL after 24 hrs by agar-disk diffusion technique
Format: functional, organism-based
Calls of active or inactive are those of the source. The rule behind the calls is not given here.
property-name: growth inhibition (GI)

[[record]]
compound = "NC(S)(/C=C/c1ccc(Cl)cc1)NNC(=O)c1ccncc1 (centres undefined)"
experimental_system = "Proteus mirabilis"
value = "Active"

[[record]]
compound = "NNC(=O)c1ccncc1"
experimental_system = "Proteus mirabilis"
value = "inactive"

[[record]]
compound = "Cc1ccc(/C=C/C(N)(S)NNC(=O)c2ccncc2)cc1 (centres undefined)"
experimental_system = "Proteus mirabilis"
value = "inactive"

[[record]]
compound = "Cc1ccc(/C=C/C(N)=S)cc1"
experimental_system = "Proteus mirabilis"
value = "inactive"

[[record]]
compound = "COc1ccc(/C=C/C(N)(S)NNC(=O)c2ccncc2)cc1 (centres undefined)"
experimental_system = "Proteus mirabilis"
value = "inactive"

[[record]]
compound = "CCOc1ccc(/C=C/C(N)=S)cc1"
experimental_system = "Proteus mirabilis"
value = "Active"

[[record]]
compound = "NC(=S)/C=C/c1ccc(Cl)cc1"
experimental_system = "Proteus mirabilis"
value = "inactive"

[[record]]
compound = "COc1ccc(/C=C/C(N)=S)cc1"
experimental_system = "Proteus mirabilis"
value = "inactive"

[[record]]
compound = "NC(=S)/C=C/c1ccccc1"
experimental_system = "Proteus mirabilis"
value = "Active"


Data origin: ChEMBL document CHEMBL2417507
